Biological target: PCSK9 (Homo sapiens)
Sequence (Q8NBP7 153-692): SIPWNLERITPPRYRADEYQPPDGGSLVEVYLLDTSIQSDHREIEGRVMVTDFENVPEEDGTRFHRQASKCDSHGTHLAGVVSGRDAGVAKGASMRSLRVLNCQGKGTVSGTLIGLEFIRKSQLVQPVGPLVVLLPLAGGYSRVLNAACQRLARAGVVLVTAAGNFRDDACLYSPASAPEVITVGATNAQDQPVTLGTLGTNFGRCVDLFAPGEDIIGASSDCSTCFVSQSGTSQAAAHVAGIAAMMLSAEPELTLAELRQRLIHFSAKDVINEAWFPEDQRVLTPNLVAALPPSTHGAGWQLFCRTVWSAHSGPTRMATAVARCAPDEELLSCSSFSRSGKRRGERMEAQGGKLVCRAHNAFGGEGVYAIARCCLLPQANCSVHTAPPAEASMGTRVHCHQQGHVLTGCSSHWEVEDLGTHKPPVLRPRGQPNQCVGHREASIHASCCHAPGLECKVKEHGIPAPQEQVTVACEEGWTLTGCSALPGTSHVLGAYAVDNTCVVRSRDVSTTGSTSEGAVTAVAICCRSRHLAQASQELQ
Assay: BODIPY-LDL uptake assay in HepG2 cells
Type: cell-based
Conditions: 30 μM test compound, 5 μg/ml PCSK9, BODIPY-LDL
For each record, write down the corresponding % increase in LDL Uptake.
Give bare numbers, in %.

Here are 7 compounds together with their reported answers.
O=C(c1ccc(C2(OCCO)COC2)cc1)N1CC2CN(c3ccc(C(F)(F)F)cc3)CC2C1 (centres unmarked) | 34
COC1(c2cccc(C(=O)N3CCC(c4ccc(C(F)F)cc4)CC3)c2)COC1 | 66
COC1(c2ccc(C(=O)N3CC4CN(c5ccc(C(F)(F)F)cc5)CC4C3)cc2)COC1 (centres unmarked) | 53
O=C(c1ccc(C2(O)CSC2)cc1)N1CC2CN(c3ccc(C(F)(F)F)cc3)CC2C1 (centres unmarked) | 29
O=C(c1ccc(C2(O)COC2)cc1)N1CC2=C(C1)CN(c1ccc(C(F)(F)F)cc1)C2 | 226
CCS(=O)(=O)CCOC1(c2ccc(C(=O)N3CCC(c4ccc(C(F)(F)F)cc4)CC3)cc2)COC1 | 62
O=C(c1cccc(C2(O)COC2)c1)N1CC2=C(C1)CN(c1ccc(C(F)(F)F)cc1)C2 | 75

Please fill in: % increase in LDL Uptake reported for `O=C(c1ccc(C2(OCCO)COC2)cc1)N1CCC(c2ccc(C(F)(F)F)cc2)CC1` = 136

----------
Target: UniProt Q8NBP7
Assay: BODIPY-LDL uptake assay in HepG2 cells
Format: cell-based
Conditions: 30 μM test compound, 5 μg/ml PCSK9, BODIPY-LDL
Please enter rule met where % increase in LDL Uptake is greater than or equal to 20%, and rule not met where it is lower.

Identify whether the reported % increase in LDL Uptake of the following compound is 20% or greater: `COc1ccc(C2CCN(C(=O)c3ccc(C4(O)COC4)cc3)CC2)cc1F` rule met

Given `COC1(c2ccc(C(=O)N3CCC(c4ccc(C(F)(F)F)c(-n5cnc(C)c5)c4)CC3)cc2)COC1` , state whether its % increase in LDL Uptake is at least 20%. rule met

hey, is % increase in LDL Uptake for this one >= 20%? O=S(=O)(c1ccc(C2(O)COC2)cc1)N1CC2CN(c3ccc(C(F)(F)F)cc3)CC2C1 (centres unmarked) rule not met

Reported % increase in LDL Uptake at or above 20%? COc1cc(C2CN(c3ccc(C(F)(F)F)cc3)CCN2C(=O)c2ccc(C3(O)COC3)cc2)ccn1 (centres unmarked) rule not met

----------
Molecular target: PCSK9 (Homo sapiens)
Experiment: BODIPY-LDL uptake assay in HepG2 cells
Format: cell-based
Conditions: 1 μM test compound, 5 μg/ml PCSK9, BODIPY-LDL
Assignment: determine reported % increase in LDL Uptake for the given compounds.
// unit must come after the numeric part

Worked cases, answers included:
CCOC1(c2ccc(C(=O)N3CCCC(c4ccc(C(F)(F)F)cc4)C3)cc2)COC1 (centres unmarked) [Example 123] | 0%
O=C(c1ccc(C2(O)COC2)cc1)N1CCC(c2ccc(C(F)(F)F)cc2)CC1 [Example 1] | 25%
O=C(c1ccc(C2(O)COC2)cc1)N1CCC(c2ccc(C(F)(F)F)cc2)C1 (centres unmarked) [Example 102] | 4%
O=C(c1cccc(C2(O)COC2)c1)N1CCc2scc(-c3ccc(C(F)(F)F)cc3)c2C1 [Example 176] | 0%
O=C(c1ccc(C2(O)COC2)cc1)N1CCc2nc(-c3ccc(C(F)(F)F)cc3)sc2C1 [Example 175] | 17%

Respectfully, I request % increase in LDL Uptake for each entry included below.
1. CCOC1(c2ccc(C(=O)N3CCC(c4ccc(C(F)(F)F)cc4)CC3)cc2)CCN(C(=O)OC(C)(C)C)CC1 [Example 161]
2. O=C(c1ccc(C2(O)COC2)cc1)N1CCC2(CC1)CCN(c1ccc(C(F)(F)F)cc1)CC2 [Example 99]
3. COC1(c2ccc(C(=O)N3CC4CN(c5ccc(C(F)(F)F)nc5)CC4C3)cc2)COC1 (centres unmarked) [Example 206]

["0%", "50%", "0%"]
